Values compiled from PubChem BioAssay (NCI).

Test system: UO-31 renal
MEASUREMENT DESCRIPTION: NCI-60 one-dose screen, 48 h
EXPERIMENTAL PARAMETERS: 10 µM unless noted
The panel holds about 83,000 compounds, 20% with a hit somewhere; the sample as a whole holds those more often. Calls of active or inactive are those of the source. The calls were made as follows: active = growth percent below 10; inactive = the rest.
Choose one outcome from this list and give only that: active, inactive

O=C(CN1N=C(c2ccc(F)cc2)CCC1=O)Nc1nc2ccccc2s1	active
Cc1c(Cl)cccc1NC(=O)c1sc2nc3c(cc2c1N)COCC3	inactive
Cc1cnc(SCc2ccc(Cl)cc2)[nH]c1=S	inactive

Shift focus to the following entry.
I would be grateful if you could indicate the recorded call for CC(=O)c1cc2c(N)c(C(=O)Nc3ccccn3)sc2nc1C .
inactive

* * *

Tested on: UACC-62 melanoma
MEASUREMENT DESCRIPTION: NCI-60 one-dose screen, 48 h (100 = growth as untreated, 0 = no growth, -100 = all killed)
EXPERIMENTAL PARAMETERS: 10 µM unless noted
This is part of a sample that, as a whole, favours compounds with a hit. Of some 83,000 tested, about 20% had one in any assay.
QUANTITY NAME: growth (%)
Write the number in % without appending the unit.

// known answers, use as guide
Cc1[nH]c(N=Nc2ccccc2)nc1N=Nc1ccccc1	-19.7
Nc1c(C(=O)Nc2cccc3ccccc23)sc2nc3c(cc12)CCCCC3	38
Nc1c(C(=O)Nc2ccccn2)sc2nc3c(cc12)CCCC3	41.2
O=C(/C(=C/c1ccc([N+](=O)[O-])cc1)SCc1ccc(Cl)cc1)c1ccc(F)cc1	33.8
COc1ccc([C@H]2[C@@H](F)C(=O)N2c2cc(OC)c(OC)c(OC)c2)cc1F	53.4
CC1CCCN(CCCCCOc2ccc3oc4ccc(Cl)cc4c(=O)c3c2)C1 (configuration not stated)	-43.1

Which growth is reported with UACC-62 melanoma for this entry: O=C1[C@@H](OS(=O)(=O)CC(F)(F)F)[C@H](c2ccc(F)cn2)N1c1cc2c3ccccc3ccc2c2ccccc12 ?
58.3

Which growth is reported with UACC-62 melanoma for this entry: Cc1c(C(=O)Nc2nc3ccccc3[nH]2)cnn1-c1ccccn1 ?
107

Which growth is reported with UACC-62 melanoma for this entry: CC(C)(C)CC(C)(C)Cc1ccc(OCCOCC[N+](C)(C)Cc2ccccc2)cc1 ?
-36.1

Which growth is reported with UACC-62 melanoma for this entry: CCOC(=O)C1CCN(S(=O)(=O)/N=C2/NC(=O)NC2=C(Cl)Cl)CC1 ?
-30.6

Which growth is reported with UACC-62 melanoma for this entry: Cc1cccc(C)c1NCc1nnc(-c2ccc(O)cc2)o1 ?
100

Which growth is reported with UACC-62 melanoma for this entry: C/C(=C\c1cnc(C)s1)[C@@H]1C[C@@H]2O[C@@H]2CCC[C@H](C)[C@H](O)[C@@H](C)C(=O)C(C)(C)[C@@H](O)CC(=O)O1 ?
51

Which growth is reported with UACC-62 melanoma for this entry: N#Cc1ccc(N2Cc3cc(Cl)ccc3OC3=C2C(=O)N(Cc2ccccc2)C3=O)cc1 ?
-35.5

* * *

Tested on: UACC-257 melanoma
MEASUREMENT DESCRIPTION: NCI-60 one-dose screen, 48 h (100 = growth as untreated, 0 = no growth, -100 = all killed)
EXPERIMENTAL PARAMETERS: 10 µM unless noted
Compounds without any hit were thinned out: in the full panel of roughly 83,000, 20% have a hit. The source made the active and inactive calls. How the source made its calls: active means growth percent below 10; inactive means the rest.
QUANTITY NAME: growth

// known answers, use as guide
Nc1c(C(=O)Nc2ccccn2)sc2nc3c(cc12)CCCCC3	72.5% (inactive)
CCSc1nc(Cl)c(C#N)c(-c2ccc(F)cc2)n1	93.8% (inactive)
Cc1cc(Cl)cc(CN(Cc2ccccc2)Cc2c(O)ccc3ccccc23)c1O	100% (inactive)
CN(CCC#N)C(=O)Nc1ccccc1	94.1% (inactive)
C=C1C(=O)O[C@H]2[C@H]1CC/C(COC(=O)NCC(=O)Nc1ccc(OC)c(C(N)=O)c1O)=C\CC[C@@]1(C)O[C@@H]21	53.3% (inactive)
Cc1cccc(C)c1NCc1nnc(-c2ccco2)o1	98.7% (inactive)
O=C(O)c1cn(C2CC2)c2cc(N3CCN(C(=O)CSc4nnc(-c5ccc(Cl)cc5)n4-c4ccccc4)CC3)c(F)cc2c1=O	96.4% (inactive)
NCCN1CCNCC1	25.9% (inactive)
CCOC(=O)NC(Cc1ccccc1)c1ccccc1 (stereo not drawn)	108% (inactive)
C=C(C)[C@@H]1CC[C@]2(C(=O)OCCOCCOCC[P+](c3ccccc3)(c3ccccc3)c3ccccc3)CC[C@]3(C)[C@H](CC[C@@H]4[C@@]5(C)CC[C@H](C)C(C)(C)[C@@H]5CC[C@]43C)[C@@H]12	-88.1% (active)

Given the compound Cc1cnc(SCc2ccc(Cl)cc2)[nH]c1=S , what is its reported growth?
102% (inactive)

Given the compound CC(C)(C)c1ccc2oc(=O)n(SC(Cl)(Cl)Cl)c2c1 , what is its reported growth?
111% (inactive)

Given the compound COc1ccc2c(c1)OC13Oc4cc(OC)ccc4C=C1CCCCC3=C2 , what is its reported growth?
78.6% (inactive)

Given the compound Cc1cnc(SCc2ccc(Cl)cc2Cl)nc1Nc1ccc(Cl)c(Cl)c1 , what is its reported growth?
91.4% (inactive)

Given the compound COc1ccc(/C=C/C(=O)C(CC2CCC2)C(=O)/C=C/c2ccc(OC)c(OC)c2)cc1OC , what is its reported growth?
-16.7% (active)

* * *

Tested on: SK-OV-3 ovarian
MEASUREMENT DESCRIPTION: NCI-60 one-dose screen, 48 h (100 = growth as untreated, 0 = no growth, -100 = all killed)
EXPERIMENTAL PARAMETERS: 10 µM unless noted
About 83,000 compounds went through this panel and 20% of them were active in at least one assay; those are over-represented in the sample as a whole.
The entries below are paired with their reported growth.
Write the number in % without appending the unit.

// known answers, use as guide
Cc1c(Br)cccc1NC(=O)c1sc2nc3c(cc2c1N)CN(Cc1ccccc1)CC3	22.8
COc1ccccc1C(=O)/C=C/c1cc2cccc(OC)c2[nH]c1=O	16.3
c1ccc(Sc2ncccn2)nc1	99.4
COc1ccc(Cc2nc(C#N)c(N3CCN(c4ccc(F)cc4)CC3)o2)cc1	89.6
COc1ccc2c(c1)Oc1nc(N)c(C#N)c(N)c1C2Sc1ccc(O)cc1 (stereo not drawn)	104

Given the compound O=C(Nc1cc(=O)[nH]c(=O)[nH]1)C(Cl)Cl , what is its reported growth?
107

Given the compound O=C(/C(=C\c1c(-c2ccccc2)[nH]c2ccccc12)S(=O)(=O)c1ccccc1)c1ccccc1 , what is its reported growth?
23.1

* * *

System: A549/ATCC NSCLC
MEASUREMENT DESCRIPTION: NCI-60 one-dose screen, 48 h (100 = growth as untreated, 0 = no growth, -100 = all killed)
EXPERIMENTAL PARAMETERS: 10 µM unless noted
This is part of a sample that, as a whole, favours compounds with a hit. Of some 83,000 tested, about 20% had one in any assay.
Quick rule for you: growth at 50% or higher means class 1, lower means class 0.

Previously resolved entries follow.
O=c1nc(-c2ccccc2)c2cc(-c3ccc(N4CCCC4)nc3)ccc2[nH]1	class 1
CCOC(=O)C1=C(C)n2nc(CC#N)c(C#N)c2NC1c1ccc(CC)cc1 (stereo not given)	class 1
COc1ccc(C(=S)c2cc(OC)c(OC)c(OC)c2)cc1OC(=O)CCl	class 0

Shift focus to the following entry.
Determine whether this molecule has growth no lower than 50%: Cc1c(Cl)cccc1NC(=O)c1sc2nc3c(cc2c1N)CCCCCC3
class 0

* * *

Test system: SF-539 CNS
MEASUREMENT DESCRIPTION: NCI-60 one-dose screen, 48 h
EXPERIMENTAL PARAMETERS: 10 µM unless noted
This is part of a sample that, as a whole, favours compounds with a hit. Of some 83,000 tested, about 20% had one in any assay. The source made the active and inactive calls. Rule for the calls: active = growth percent below 10; inactive = the rest.
Choose one outcome from this list and give only that: active, inactive

C#CCN1C(=O)c2ccccc2N(CC#C)C12CCN(Cc1cn(CC(=O)Nc3ccccc3C(N)=O)nn1)CC2	inactive
COc1ccc(/C=C/C(=O)c2ccc(NC(=O)CSc3nnc(-c4ccc(OC)c(OC)c4)n3-c3ccccc3)cc2)cc1	inactive
Cc1cccc(C)c1Nc1nnc(-c2ccc(F)cc2)o1	inactive
CCCCn1c(=O)c(/C=C/C(=O)/C=C/c2cc3ccccc3n(CCCC)c2=O)cc2ccccc21	active

I would be grateful if you could indicate the recorded call for COC(=O)/C=C/c1cc(OC)c2c(c1)[C@@H](C(=O)OC)[C@H](c1ccc(OC)c(OC)c1)O2 .
active

I would be grateful if you could indicate the recorded call for c1cc(CNC23CC4CC(CC(C4)C2)C3)cc(C[N+](Cc2cccc(CNC34CC5CC(CC(C5)C3)C4)c2)(Cc2cccc(CNC34CC5CC(CC(C5)C3)C4)c2)Cc2cccc(CNC34CC5CC(CC(C5)C3)C4)c2)c1 (stereo not given) .
inactive

I would be grateful if you could indicate the recorded call for CC1(C)CC[C@]2(c3nnc(-c4ccncc4)o3)CC[C@]3(C)C(=CC[C@@H]4[C@@]5(C)CCC(=O)C(C)(C)[C@@H]5CC[C@]43C)[C@@H]2C1 .
inactive

I would be grateful if you could indicate the recorded call for O=C(Nc1nc(-c2ccccc2Cl)cs1)c1cc(-c2ccc(Br)cc2)nc2ccccc12 .
inactive

I would be grateful if you could indicate the recorded call for COC1=CC2C=C(C3N(c4ccccc4)NC(=O)[C@@H]4CCCN34)C(=O)NC2C=C1 (stereo not given in full) .
inactive

I would be grateful if you could indicate the recorded call for O=C(CCc1nnc2sc(OCc3ccccc3)nn12)c1nc2ccc([N+](=O)[O-])cc2[nH]1 .
inactive
